ASSAY_OVERVIEW: Acute toxicity test
Design: species or system rats (Crj:CD(SD) strain)
CONDITION_DESCRIPTION: Crj:CD(SD), rat, in vivo, iv; Female rats; intravenously; observed for 14 days; probit method; read-out: LD₅₀
Description: Five rats (Crj:CD(SD) strain) of either sex were used per group. Solutions of the test compound in physiological saline were administered to rats intravenously. The rats were then observed for 14 days. The LD₅₀ values were calculated by the probit method.
RESULT_TYPE: LD50 at 14 days (mg/kg)
API: value field is a number in mg/kg; no unit string.

# SMILES_DATA, LD50 at 14 days (mg/kg)
data = [
    ("CC(C)CC[C@H](O)[C@H](CC1CCCCC1)NC(=O)[C@H](Cc1c[nH]cn1)N(C)C(=O)[C@H](Cc1ccccc1)OC(=O)N(C)CCC(=O)N1CCOCC1.Cl", 93.3),
]

Attention now turns to another entry.
# input I'd like to know its LD50 at 14 days. The compound in question is CC(C)CC[C@H](O)[C@H](CC1CCCCC1)NC(=O)[C@H](Cc1c[nH]cn1)N(C)C(=O)[C@H](Cc1ccccc1)OC(=O)N(C)CCN(C)C(=O)N1CCOCC1.Cl
# output 69

// data source = patent EP0573652A1
